target_entity: HLA-A*2401 (purified HLA class I molecule) (human)
procedure_summary: competition with 125I-labelled standard peptide for purified HLA, gel filtration
details: scale: ratio
recorded_endpoint: relative binding ratio

binder	relative binding ratio
IFGSLAFL [HER2/neu peptide, position 370, 8 amino acids]	0.012
EYHADGGKVPI [HER2/neu peptide, position 876, 11 amino acids]	-0.0003
GMGAAKGL [HER2/neu peptide, position 1091, 8 amino acids]	-0.0003
IWIPDGENVKI [HER2/neu peptide, position 738, 11 amino acids]	0.0027
GYLYISAW [HER2/neu peptide, position 408, 8 amino acids]	0.0044

[1] EYLVPQQGF [HER2/neu peptide, position 1022, 9 amino acids]
[2] IFHKNNQL [HER2/neu peptide, position 172, 8 amino acids]
Rank 1 against 2 by their relative binding ratio values and give the higher one. Answer = label.
1
